The reported numbers originate from paper PMC9987750.

target: hCA I (Homo sapiens, UniProt P00915); test: stopped flow CO2 hydrase assay, CA inhibition; settings: recombinant enzyme, pH 7.4, 10 min pre-incubation, from 3 different assays
Sequence (P00915 whole entry): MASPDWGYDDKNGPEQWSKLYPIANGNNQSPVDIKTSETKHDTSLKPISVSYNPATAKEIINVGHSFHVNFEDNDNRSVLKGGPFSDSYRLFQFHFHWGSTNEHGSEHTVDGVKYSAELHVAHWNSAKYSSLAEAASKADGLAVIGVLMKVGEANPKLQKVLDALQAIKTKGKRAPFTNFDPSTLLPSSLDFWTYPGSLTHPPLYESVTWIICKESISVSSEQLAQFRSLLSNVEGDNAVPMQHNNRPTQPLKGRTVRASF
Quantity name: Ki (µM)

Below, 5 compounds whose answers are already recorded.
Query string: Give its Ki value. Item: Cc1cc(-c2ccc(NC(=O)Nc3cccc(S(N)(=O)=O)c3)c(C)c2)ccc1NC(=O)Nc1cccc(S(N)(=O)=O)c1
Result string: 0.688

Query string: Give its Ki value. Item: Cc1ccc(NC(=O)NCCc2ccc(S(N)(=O)=O)cc2)cc1NC(=O)NCCc1ccc(S(N)(=O)=O)cc1
Result string: 0.0954

Query string: Give its Ki value. Item: Cc1cc(-c2ccc(NC(=O)NCCc3ccc(S(N)(=O)=O)cc3)c(C)c2)ccc1NC(=O)NCCc1ccc(S(N)(=O)=O)cc1
Result string: 8.31

Query string: Give its Ki value. Item: Cc1cc(-c2ccc(NC(=O)Nc3ccc(S(N)(=O)=O)cc3)c(C)c2)ccc1NC(=O)Nc1ccc(S(N)(=O)=O)cc1
Result string: 0.947

Query string: Give its Ki value. Item: NS(=O)(=O)c1cccc(NC(=O)Nc2ccc(NC(=O)Nc3cccc(S(N)(=O)=O)c3)cc2)c1
Result string: 6.52

[1] NS(=O)(=O)c1ccc(NC(=O)Nc2ccc(Cc3ccc(NC(=O)Nc4ccc(S(N)(=O)=O)cc4)cc3)cc2)cc1
[2] NS(=O)(=O)c1ccc(CCNC(=O)Nc2ccc(NC(=O)NCCc3ccc(S(N)(=O)=O)cc3)cc2)cc1
[3] NS(=O)(=O)c1cccc(NC(=O)Nc2ccc(Cc3ccc(NC(=O)Nc4cccc(S(N)(=O)=O)c4)cc3)cc2)c1
[4] Cc1ccc(NC(=O)Nc2ccc(S(N)(=O)=O)cc2)cc1NC(=O)Nc1ccc(S(N)(=O)=O)cc1
Query string: Parameters: sort_field (Ki), sort_dir (desc). The response must list the labels following the requested ordering.
Result string: 3, 1, 2, 4
(3: 9.17 µM, 1: 6.28 µM, 2: 2.91 µM, 4: 0.0681 µM)

====

Consider the following compounds and their measured melting point readings.

Below, 4 compounds whose answers are already recorded.
Query string: Give its melting point value. Item: NS(=O)(=O)c1ccc(CCNC(=O)Nc2ccc(NC(=O)NCCc3ccc(S(N)(=O)=O)cc3)cc2)cc1
Result string: > 300 °C

Query string: Give its melting point value. Item: Cc1ccc(NC(=O)Nc2cccc(S(N)(=O)=O)c2)cc1NC(=O)Nc1cccc(S(N)(=O)=O)c1
Result string: 233 to 234 °C

Query string: Give its melting point value. Item: Cc1cc(-c2ccc(NC(=O)Nc3ccc(S(N)(=O)=O)cc3)c(C)c2)ccc1NC(=O)Nc1ccc(S(N)(=O)=O)cc1
Result string: > 300 °C

Query string: Give its melting point value. Item: NS(=O)(=O)c1ccc(NC(=O)Nc2ccc(NC(=O)Nc3ccc(S(N)(=O)=O)cc3)cc2)cc1
Result string: > 300 °C

New cases:
Query string: Give its melting point value. Item: Cc1cc(-c2ccc(NC(=O)NCCc3ccc(S(N)(=O)=O)cc3)c(C)c2)ccc1NC(=O)NCCc1ccc(S(N)(=O)=O)cc1
Result string: > 300 °C

Query string: Give its melting point value. Item: NS(=O)(=O)c1cccc(NC(=O)Nc2ccc(Cc3ccc(NC(=O)Nc4cccc(S(N)(=O)=O)c4)cc3)cc2)c1
Result string: 293 to 295 °C

Query string: Give its melting point value. Item: NS(=O)(=O)c1ccc(CCNC(=O)Nc2ccc(Cc3ccc(NC(=O)NCCc4ccc(S(N)(=O)=O)cc4)cc3)cc2)cc1
Result string: 270 to 272 °C
